# System: 782815-120-R-J1-PDC complex spheroid viability
# assay-procedure: Anticancer human tumor 782815-120-R-J1-PDC patient-derived colon adenocarcinoma cell line growth inhibition [RAS]
# assay-conditions: curve of first compound; second compound 0.01 µM
pIC50: −log10 of the molar value.
Entries annotated with measured pIC50
quantity-name: pIC50

# molecule, quantity-name, measured-result
rows = [
    ("CC1(C)CCC(Nc2ncc(C(F)(F)F)c(-c3c[nH]c4c(P(C)(C)=O)c(C#N)ccc34)n2)CN1 (stereo not given) + C=CC(=O)N1CCN(c2nc(OCC3CCCN3C)nc3c(F)c(-c4nc(N)cc(C)c4C(F)(F)F)c(Cl)cc23)C(C)C1", "pIC50", "< 6.52"),
    ("O=C(c1ccc(F)c(F)c1Nc1ccc(I)cc1F)N1CC(O)([C@@H]2CCCCN2)C1 + C=CC(=O)N1CCN(c2nc(OCC3CCCN3C)nc3c(F)c(-c4nc(N)cc(C)c4C(F)(F)F)c(Cl)cc23)C(C)C1", "pIC50", 7.17),
    ("NC1c2ccccc2OC12CCN(c1cnc3c(N4CCCc5ncccc54)n[nH]c3n1)CC2 (stereo not given) + C=CC(=O)N1CCN(c2nc(OCC3CCCN3C)nc3c(F)c(-c4nc(N)cc(C)c4C(F)(F)F)c(Cl)cc23)C(C)C1", "pIC50", "< 5.00"),
    ("C[C@@H](NC(=O)c1ncnc(N)c1Cl)c1ncc(C(=O)Nc2cc(C(F)(F)F)c(Cl)cn2)s1 + C=CC(=O)N1CCN(c2nc(OCC3CCCN3C)nc3c(F)c(-c4nc(N)cc(C)c4C(F)(F)F)c(Cl)cc23)C(C)C1", "pIC50", "< 5.00"),
    ("CC(Nc1ccc2c(c1)OCCn1cc(N3C(=O)OCC3C(F)F)nc1-2)C(N)=O (stereo not given) + C=CC(=O)N1CCN(c2nc(OCC3CCCN3C)nc3c(F)c(-c4nc(N)cc(C)c4C(F)(F)F)c(Cl)cc23)C(C)C1", "pIC50", "< 5.00"),
]

----------
# System: 782815-120-R-J1-PDC complex spheroid viability
# assay-procedure: Anticancer human tumor 782815-120-R-J1-PDC cell line growth inhibition [RAS];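 also: spheroids exposed to compounds for 7 days before reading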;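 as to viability, T/C: 100% = DMSO vehicle control viability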
# assay-conditions: second compound 0.0949 µM; first compound 0.03 µM; stronger effect = lower value

# compound, viability, T/C
records = [
    ("CCc1c2c(nc3ccc(O)cc13)-c1cc3c(c(=O)n1C2)COC(=O)[C@]3(O)CC + CCn1c(-c2cc(N3CCN(C)CC3)cnc2C(C)OC)c2c3cc(ccc31)-c1csc(n1)CC(NC(=O)C1CC1C)C(=O)N1CCCC(N1)C(=O)OCC(C)(C)C2", "10.5%"),
    ("CC1(C)CCC(Nc2ncc(C(F)(F)F)c(-c3c[nH]c4c(P(C)(C)=O)c(C#N)ccc34)n2)CN1 (centres undefined) + CCn1c(-c2cccnc2C(C)OC)c2c3cc(ccc31)N1CCOC(CC(NC(=O)C(C(C)C)N(C)C(=O)C3(F)CCN(C(=O)C#CC(C)(C)N(C)C)CC3)C(=O)N3CCCC(N3)C(=O)OCC(C)(C)C2)C1", "56.8%"),
    ("CCc1c2c(nc3ccc(O)cc13)-c1cc3c(c(=O)n1C2)COC(=O)[C@]3(O)CC + CCn1c(-c2cccnc2C(C)OC)c2c3cc(ccc31)N1CCOC(CC(NC(=O)C(C(C)C)N(C)C(=O)C3(F)CCN(C(=O)C#CC(C)(C)N(C)C)CC3)C(=O)N3CCCC(N3)C(=O)OCC(C)(C)C2)C1", "8.68%"),
    ("CC1(C)CCC(Nc2ncc(C(F)(F)F)c(-c3c[nH]c4c(P(C)(C)=O)c(C#N)ccc34)n2)CN1 (centres undefined) + CCn1c(-c2cc(N3CCN(C)CC3)cnc2C(C)OC)c2c3cc(ccc31)-c1csc(n1)CC(NC(=O)C1CC1C)C(=O)N1CCCC(N1)C(=O)OCC(C)(C)C2", "10.4%"),
]

These measurements were taken from PubChem BioAssay AID2060887.
